Origin of the recorded values: the supplement of paper PMC10567573

Entries and their measured protein stability index follow.
B1: ZBED2 (parent)
chain: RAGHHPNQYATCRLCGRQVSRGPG

variants of: B1; experiment: protein stability index of a GFP-peptide fusion (GPS, HEK-293T) (PSI 1-6); higher = more stable; conditions: c terminus: a fixed tail appended;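 further: lentivirally expressed fusions sorted by FACS into six bins by GFP to DsRed ratio, PSI derived from sequencing read proportions per bin multiplied by bin number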

Variant designation: A10C
protein stability index: 2.67
--
Variant designation: A10D
protein stability index: 1.79
--
Variant designation: R13K
protein stability index: 2.1
--
Variant designation: S20Q
protein stability index: 2.21
--
Variant designation: S20V
protein stability index: 2.08
--
Variant designation: R21M
protein stability index: 1.68
--
Variant designation: G24F
protein stability index: 1.17
--
Variant designation: R17E
protein stability index: 1.93
--
Variant designation: H5D
protein stability index: 3.27
--
Variant designation: L14K
protein stability index: 2.66
--
Variant designation: Q18W
protein stability index: 1.27
--
Variant designation: R21N
protein stability index: 2.88
--
Variant designation: R17A
protein stability index: 1.69
--
Variant designation: C15T
protein stability index: 3.44
--
Variant designation: G3T
protein stability index: 2.19
--
Variant designation: T11Y
protein stability index: 3.09
--
Variant designation: Q18M
protein stability index: 2.17
--
Variant designation: V19I
protein stability index: 1.37
--
Variant designation: Y9F
protein stability index: 1.67
--
Variant designation: L14P
protein stability index: 1.82
--
Variant designation: R13W
protein stability index: 1.98
--
Variant designation: R13I
protein stability index: 2.09
